Values compiled from patent US10278957B2.

Assay: SIF assay (stability in simulated intestinal fluid)
Format: in vitro ADME
Conditions: simulated intestinal fluid (SIF) with pancreatin; simulated intestinal fluid, pH 6.8, pancreatin, 37° C., 20 μM
Square brackets hold non-standard residues; d marks the D form. Peptide text beside a SMILES is read from it. Dmt = Cc1cc(O)cc(C)c1C[C@H](N)C(=O)O; β3hF = N[C@H](CC(=O)O)Cc1ccccc1; Sar = CNCC(=O)O
The following compounds are shown together with reported half-life at 20 μM values.

The following compounds have reported results that may help.
compound=Cc1cc(O)cc(C)c1C[C@H](N)C(=O)N[C@H](C)C(=O)NCC(=O)N[C@H](CC(=O)N(C)[C@@H](CC(C)C)C(=O)O)Cc1ccccc1 measured_value="> 24 h"
compound="Cc1cc(O)cc(C)c1C[C@H](N)C(=O)NCC(=O)NCC(=O)N[C@H](CC(=O)N(C)CC(N)=O)Cc1ccccc1 [compound 81] (H-[Dmt]GG[β3hF][Sar]-NH2)" measured_value="> 24 h"
compound=CN[C@@H](Cc1ccc(O)cc1)C(=O)N[C@H](C)C(=O)NCC(=O)N[C@H](CC(=O)N(C)CC(N)=O)Cc1ccccc1 measured_value="6 to 24 h"
compound=Cc1cc(O)cc(C)c1C[C@H](N)C(=O)N[C@H](C)C(=O)NCC(=O)N[C@H](CC(=O)N(C)CC(=O)O)Cc1ccccc1 measured_value="> 24 h"
compound=Cc1cc(O)cc(C)c1C[C@H](N)C(=O)N[C@H](C)C(=O)NCC(=O)N[C@H](CC(=O)N(C)CC(N)=O)Cc1ccccc1 measured_value="6 to 24 h"
compound=CCCC[C@H](NC(=O)[C@H](Cc1ccccc1)NC(=O)CNC(=O)[C@@H](C)NC(=O)[C@@H](N)Cc1c(C)cc(O)cc1C)C(N)=O measured_value="≤ 0.167 h"

What does the record list as half-life at 20 μM for `Cc1cc(O)cc(C)c1C[C@H](N)C(=O)N[C@H](C)C(=O)NCCC(=O)N[C@H](CC(=O)N(C)CC(N)=O)Cc1ccccc1` ?
> 24 h

Entry to check: `Cc1cc(O)cc(C)c1C[C@H](N)C(=O)N[C@H](Cc1ccc(O)cc1)C(=O)NCC(=O)N[C@H](CC(=O)N(C)CC(N)=O)Cc1ccccc1`
> 24 h
